Hey, just so you know, these numbers are from paper PMC9686516.

- Procedure Details: Colistin pharmacokinetics in plasma after nebulized CMS in ventilated VARI patients
- Format: in vivo, human
- Condition Description: human, inhaled or intranasal, 2 mIU, 0.5 h post-nebulization, JN, n = 6, 2 mIU CMS inhaled, median (IQR), read-out: Ccolistin, plasma
Where a SMILES comes first, the peptide text is derived from it. Bridges are numbered along the chain shown (N, C = ends). [ ]: non-standard residue; d: D form. The star is where a group is joined. X1 = CC[C@H](C)CCCCC(=O)*; Dab = NCC[C@H](N)C(=O)O

Molecule	Unit Abbrev	level at 0.5 h
CC[C@H](C)CCCCC(=O)N[C@@H](CCN)C(=O)N[C@H](C(=O)N[C@@H](CCN)C(=O)N[C@H]1CCNC(=O)[C@H]([C@@H](C)O)NC(=O)[C@H](CCN)NC(=O)[C@H](CCN)NC(=O)[C@H](CC(C)C)NC(=O)[C@@H](CC(C)C)NC(=O)[C@H](CCN)NC1=O)[C@@H](C)O [colistin] (X1-[Dab]T[Dab][Dab][Dab][dL]L[Dab][Dab]T; lactam 4-C)	ng/mL	100

---

- Procedure Details: Colistin pharmacokinetics in epithelial lining fluid (ELF) after nebulized CMS in ventilated VARI patients
- Format: in vivo, human
- Condition Description: human, epithelial lining fluid (ELF)/plasma, inhaled or intranasal, 2 mIU, ELF/plasma mean concentration ratio; JN, n = 6; 2 mIU CMS inhaled; mean (SD); SD
Where a SMILES comes first, the peptide text is derived from it. Bridges are numbered along the chain shown (N, C = ends). [ ]: non-standard residue; d: D form. The star is where a group is joined. X1 = CC[C@H](C)CCCCC(=O)*; Dab = NCC[C@H](N)C(=O)O

Molecule	Kp
CC[C@H](C)CCCCC(=O)N[C@@H](CCN)C(=O)N[C@H](C(=O)N[C@@H](CCN)C(=O)N[C@H]1CCNC(=O)[C@H]([C@@H](C)O)NC(=O)[C@H](CCN)NC(=O)[C@H](CCN)NC(=O)[C@H](CC(C)C)NC(=O)[C@@H](CC(C)C)NC(=O)[C@H](CCN)NC1=O)[C@@H](C)O [colistin] (X1-[Dab]T[Dab][Dab][Dab][dL]L[Dab][Dab]T; lactam 4-C)	4.8
